molecular target: KRAS G12C-SOS1 (Homo sapiens (Human)); assay: Inhibition test on KRAS G12C-SOS1 activity (Transcreener GDP-FI); type: biochemical
Sequence (Q07889 564-1049 limits assumed): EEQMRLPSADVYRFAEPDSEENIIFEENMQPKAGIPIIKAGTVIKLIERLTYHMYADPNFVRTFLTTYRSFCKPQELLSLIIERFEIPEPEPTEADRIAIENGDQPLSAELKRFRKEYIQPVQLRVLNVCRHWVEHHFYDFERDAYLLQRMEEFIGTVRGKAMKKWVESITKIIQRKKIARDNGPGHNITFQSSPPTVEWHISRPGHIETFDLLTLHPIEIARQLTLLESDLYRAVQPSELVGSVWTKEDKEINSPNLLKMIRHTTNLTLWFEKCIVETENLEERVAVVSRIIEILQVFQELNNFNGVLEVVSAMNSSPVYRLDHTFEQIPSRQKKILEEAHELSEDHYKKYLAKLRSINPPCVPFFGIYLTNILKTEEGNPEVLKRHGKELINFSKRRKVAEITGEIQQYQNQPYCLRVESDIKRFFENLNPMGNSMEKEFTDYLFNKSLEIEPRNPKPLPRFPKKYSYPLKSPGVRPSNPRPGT
endpoint: IC50 (nM)
Form entry: value (nM) — number only.

>>> quantitative_readout("Cc1nc(N[C@H](C)c2cccc(S(=O)(=O)C(F)(F)F)c2F)c2cn(C3(CF)CC3)c(=O)cc2n1 [Compound I-2]")
102

Given Cc1nc(N[C@H](C)c2cccc(S(=O)(=O)C(F)F)c2C)c2cn(C3(CF)CC3)c(=O)cc2n1 [Compound I-1] , state its recorded IC50.
59

====

Catalogue of fraction unbound at 5 h, 1 µM values
assay: Plasma protein binding by equilibrium dialysis, human plasma; assay type: in vitro ADME; conditions: 37° C., read-out: Free fraction in plasma, Human (%)

// solved cases for fraction unbound at 5 h, 1 µM follow
>>> result("Cc1nc(N[C@H](C)c2cccc(S(=O)(=O)C(F)F)c2C)c2cn(C3(CF)CC3)c(=O)cc2n1")
0.042
>>> result("Cc1nc(N[C@H](C)c2cccc(S(=O)(=O)C(F)F)c2F)c2cn(C3(CF)CC3)c(=O)cc2n1")
0.077
>>> result("Cc1nc(N[C@H](C)c2cccc(S(=O)(=O)C(F)(F)F)c2F)c2cn(C3(CF)CC3)c(=O)cc2n1")
0.015

Let us move to another entry and its fraction unbound at 5 h, 1 µM.
Given Cc1nc(N[C@H](C)c2cccc(C(F)(F)F)c2C)c2cn(C3(CF)CC3)c(=O)cc2n1 [Control compound I, reference compound] , state its recorded fraction unbound at 5 h, 1 µM.
0.009
